- Study Target: recombinant human TK2 (Homo sapiens)
- Experiment: Intrinsic tryptophan fluorescence
- Assay type: binding
- Condition Context: read-out: Kd (equilibrium binding constant); dTTP-bound TK2, one-site specific binding model, mean ± SD
pKd: −log10 of the molar value.
Readout Type: pKd

* Nc1ccn([C@H]2C[C@H](O)[C@@H](COP(=O)(O)O)O2)c(=O)n1 [dCMP, deoxycytidine monophosphate] | 5.35
* Cc1cn([C@H]2C[C@H](O)[C@@H](COP(=O)(O)O)O2)c(=O)[nH]c1=O [dTMP, deoxythymidine monophosphate] | 5.82
* Cc1cn([C@H]2C[C@H](F)[C@@H](CO)O2)c(=O)[nH]c1=O | 5.21

----------
Overview of recorded fa (fractional accessibility) for various molecules
- Study Target: recombinant human TK2 (Homo sapiens)
- Experiment: Intrinsic tryptophan fluorescence
- Type: binding
- Condition Context: dTTP-bound TK2, 2 μM TK2, 21 °C, modified Stern–Volmer equation
Readout Type: fa (fractional accessibility)

- Cc1cn([C@H]2C[C@H](F)[C@@H](CO)O2)c(=O)[nH]c1=O [FLT, 3′-fluoro-2′,3′-dideoxythymidine]: 0.24
- Cc1cn([C@H]2C[C@H](O)[C@@H](CO)O2)c(=O)[nH]c1=O [dT, thymidine]: 0.25
- Cc1cn([C@H]2C[C@H](N=[N+]=[N-])[C@@H](CO)O2)c(=O)[nH]c1=O [AZT, 3′-Azido-2′,3′-dideoxythymidine]: 0.38
- Nc1ccn([C@H]2C[C@H](O)[C@@H](CO)O2)c(=O)n1 [dC, deoxycytidine]: 0.29
- Nc1ccn([C@H]2C[C@H](O)[C@@H](COP(=O)(O)O)O2)c(=O)n1 [dCMP, deoxycytidine monophosphate]: 0.21
- Cc1cn([C@H]2C[C@H](O)[C@@H](COP(=O)(O)O)O2)c(=O)[nH]c1=O [dTMP, deoxythymidine monophosphate]: 0.21

----------
- Study Target: recombinant human TK2 (Homo sapiens)
- Experiment: Intrinsic tryptophan fluorescence
- Format: binding
- Condition Context: Kd (equilibrium binding constant), dTTP-free TK2, one-site specific binding model, mean ± SD
Readout Type: Kd (µM)

• Nc1ccn([C@H]2C[C@H](O)[C@@H](CO)O2)c(=O)n1 = 5.64
• Cc1cn([C@H]2C[C@H](O)[C@@H](CO[P@](=O)(O)O[P@@](=O)(O)OP(=O)(O)O)O2)c(=O)[nH]c1=O [dTTP, deoxythymidine triphosphate] = 3.64
• Cc1cn([C@H]2C[C@H](O)[C@@H](CO)O2)c(=O)[nH]c1=O = 13.3

----------
- Study Target: recombinant human TK2 (Homo sapiens)
- Sequence (O00142 56-265 limits assumed): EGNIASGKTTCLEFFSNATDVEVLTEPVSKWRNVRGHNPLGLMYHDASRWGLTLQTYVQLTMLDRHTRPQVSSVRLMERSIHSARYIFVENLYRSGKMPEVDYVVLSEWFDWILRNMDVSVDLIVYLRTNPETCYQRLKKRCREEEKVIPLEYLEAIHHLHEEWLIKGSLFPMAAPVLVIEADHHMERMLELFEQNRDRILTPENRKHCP
- Experiment: Isothermal titration calorimetry
- Type: binding
- Condition Context: read-out: Kd2 (lower affinity); dTTP-bound enzyme, two-site binding model
pKd: −log10 of the molar value.
Readout Type: pKd

* Cc1cn([C@H]2C[C@H](O)[C@@H](CO)O2)c(=O)[nH]c1=O | 5.21

Reference source: paper PMC6644362
